Target: T1, CEACAM5 (CD66e) on tumour cells (human, UniProt P06731 35-685, glycosylated (natural, as on tumour cells))
T1 construct: whole, on cells; One molecule for CEACAM5 on all three cell lines; the cell line is named under assay; also called natural CEACAM5 antigen; Lovo cells
T1 sequence (looked up): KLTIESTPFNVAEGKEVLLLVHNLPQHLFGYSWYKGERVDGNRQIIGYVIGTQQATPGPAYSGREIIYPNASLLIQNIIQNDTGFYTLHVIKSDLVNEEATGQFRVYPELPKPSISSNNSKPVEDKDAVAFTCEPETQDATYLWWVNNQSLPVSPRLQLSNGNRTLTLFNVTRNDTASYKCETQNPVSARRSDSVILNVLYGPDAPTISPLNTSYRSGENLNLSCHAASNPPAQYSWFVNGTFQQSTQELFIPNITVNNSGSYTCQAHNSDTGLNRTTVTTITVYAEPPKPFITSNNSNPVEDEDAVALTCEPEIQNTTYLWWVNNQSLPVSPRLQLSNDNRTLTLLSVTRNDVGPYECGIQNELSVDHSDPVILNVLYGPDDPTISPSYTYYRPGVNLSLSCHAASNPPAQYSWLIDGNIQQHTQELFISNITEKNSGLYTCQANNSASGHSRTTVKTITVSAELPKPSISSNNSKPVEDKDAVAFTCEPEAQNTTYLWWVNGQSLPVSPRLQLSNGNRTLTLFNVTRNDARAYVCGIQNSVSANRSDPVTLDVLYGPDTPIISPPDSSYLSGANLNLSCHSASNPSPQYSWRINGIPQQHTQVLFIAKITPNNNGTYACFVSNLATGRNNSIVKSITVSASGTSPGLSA
Assay: competition by flow cytometry on KATO3 cells; competitor mouse M19 (m2F4) at 1 µg/ml, detected with anti-mouse IgG Fc-APC
Listing of entries alongside the reported Emax Inhibition, %.
Enter your answer as a number in %; do not include the unit.

Observe how each entry below is paired with its result.
{"binder": "Humanized antibody hAb-009 (antibody, V domains shown, also called hM19-7) VH: EVQLVESGGGLVQPGGSLRLSCAASGFTFTDYYMNWVRQAPGKALEWLGFIRNKVNGDTTEYAASVKGRFTISRDDSKNSLYLQMNSLKTEDTAVYYCARDKGIAYYFDYWGQGTLVTVSS VL: EIVLTQSPATLSASPGERATLSCRASQSVSYIHWYQQKPGQSPRPWIHGTSNLATGVPARFSGSGSGTDFTLTISSLEPEDAAVYYCQQWSSNLSTFGGGTKVEIK", "endpoint-result": 62.7}
{"binder": "Humanized antibody hAb-010 (antibody, V domains shown, also called hM19-8) VH: EVQLVESGGGLVQPGGSLRLSCAASGFTFTDYYMDWVRQAPGKALEWVGFIRNKVNGDTTEYAASVKGRFTISRDDSKNSLYLQMNSLKTEDTAVYYCARDKGIAYYFDYWGQGTLVTVSS VL: EIVLTQSPATLSASPGERATLSCRASSSVSYIHWYQQKPGQSPRPLIYGTSNRATGVPARFSGSGSGTDFTLTISSLEPEDAAVYYCQQWSSNLSTFGGGTKVEIK", "endpoint-result": 75}

Now look at this entry.
Give a short answer stating reported Emax Inhibition, % for Humanized antibody hAb-013 (antibody, V domains shown, also called hM19-11) VH: EVQLVESGGGLVQPGGSLRLSCAASGFTFTDYYMDWVRQAPGKALEWVGFTRNKVNGDTTEYAASVKGRFTISRDDSKNSLYLQMNSLKTEDTAVYYCARDKGIAYYFDYWGQGTLVTVSS VL: QIVLTQSPATLSASPGERATLSCRASSSVSYIHWYQQKPGQSPRPLIYGTSNLASGVPARFSGSGSGTDFTLTISSLEPEDAAVYYCQQWSSNLSTFGGGTKVEIK .
89
